Consider the following compounds; for each one, report its GI50.
Tested on: Hs-578T
Assay: NCI tumour cell line growth inhibition, 48 h
Activity calls are given as the source filed them. No stated cut-off is given here; in the data, active = GI50 up to about 1.1 µM and inactive = higher.

Worked cases, answers included:
Exam item: Return GI50 for the following compound: COc1ccc2oc(=N)c(C(N)=O)cc2c1
Marked response: 18.2 µM (inactive)

Exam item: Tell me GI50 reported for CC(=O)O[C@H]1CC[C@H]2[C@@H]3CCc4cc(O)c(I)cc4[C@H]3CC[C@]12C
Marked response: 14.9 µM (inactive)

Now take the following compound into account.
Exam item: Please give measured GI50 of the following entry: CCOC(=O)CC(C)C(C#N)(OP1(=O)OC(c2ccccc2)C(C)N1C)c1ccccc1 (stereo not drawn)
Marked response: 83.6 µM (inactive)
